Where do these numbers come from? They come from patent US20110287512.

System: ZFN7263 linker TPRPPIPKP (artificial)
Experiment: cell_activity
Conditions: yeast, paired with 7264 ZFN
Readout Type: activity (normalized MEL-1)

{"Sequence Input": "ACTCTGCTGGAAG (double strand) [7263 yeast half-site gap C]", "Target Desc": "ZFN7263 linker TPRPPIPKP (artificial)", "Readout Type": "activity (normalized MEL-1)", "Value": 1.41}
{"Sequence Input": "ACTCTGACTGGAAG (double strand) [7263 yeast half-site gap AC]", "Target Desc": "ZFN7263 linker TPRPPIPKP (artificial)", "Readout Type": "activity (normalized MEL-1)", "Value": 0.05}
{"Sequence Input": "ACTCTGGTGGAAG (double strand) [7263 yeast half-site gap G]", "Target Desc": "ZFN7263 linker TPRPPIPKP (artificial)", "Readout Type": "activity (normalized MEL-1)", "Value": 2.18}
{"Sequence Input": "ACTCTGATGGAAG (double strand) [7263 yeast half-site gap A]", "Target Desc": "ZFN7263 linker TPRPPIPKP (artificial)", "Readout Type": "activity (normalized MEL-1)", "Value": 1.3}

###

Parameter activity (normalized MEL-1): see the listing below.
Tested on: ZFN7263 linker TGGGGSQKP (artificial)
Assay: cell_activity
Settings: yeast, paired with 7264 ZFN

{"Sequence Input": "ACTCTGATGGAAG (double strand) [7263 yeast half-site gap A]", "activity (normalized MEL-1)": 0.14}
{"Sequence Input": "ACTCTGGTGGAAG (double strand) [7263 yeast half-site gap G]", "activity (normalized MEL-1)": 0.6}
{"Sequence Input": "ACTCTGACTGGAAG (double strand) [7263 yeast half-site gap AC]", "activity (normalized MEL-1)": 0.04}
{"Sequence Input": "ACTCTGCTGGAAG (double strand) [7263 yeast half-site gap C]", "activity (normalized MEL-1)": 0.04}

###

Tested on: ZFP7263 linker TPRPPIPKP (artificial)
Would you mind labelling by binding signal (normalized ELISA)? At or over 0.7 is MET, under is NOT MET.

{"Sequence Input": "TTAGCCACTCTGCTGGAAGTGTATC (double strand) [7263 target gap C]", "Target Desc": "ZFP7263 linker TPRPPIPKP (artificial)", "Group Label": "NOT MET"}
{"Sequence Input": "TTAGCCACTCTGATGGAAGTGTATC (double strand) [7263 target gap A]", "Target Desc": "ZFP7263 linker TPRPPIPKP (artificial)", "Group Label": "MET"}
{"Sequence Input": "TTAGCCACTCTGATTGGAAGTGTATC (double strand) [7263 target gap AT]", "Target Desc": "ZFP7263 linker TPRPPIPKP (artificial)", "Group Label": "NOT MET"}
{"Sequence Input": "TTAGCCACTCTGCTTGGAAGTGTATC (double strand) [7263 target gap CT]", "Target Desc": "ZFP7263 linker TPRPPIPKP (artificial)", "Group Label": "NOT MET"}
{"Sequence Input": "TTAGCCACTCTGGTGGAAGTGTATC (double strand) [7263 target gap G]", "Target Desc": "ZFP7263 linker TPRPPIPKP (artificial)", "Group Label": "MET"}
{"Sequence Input": "TTAGCCACTCTGACTGGAAGTGTATC (double strand) [7263 target gap AC]", "Target Desc": "ZFP7263 linker TPRPPIPKP (artificial)", "Group Label": "NOT MET"}
